# Organism: Rattus norvegicus
# experiment.notes: Open TG-GATES - Regimen: Single
# Assay type: toxicity, organism-based, Sprague-Dawley
# Design: regimen Single, gender Male, age 6 weeks
# condition.details: in vivo, po, 1000 mg/kg, 3 h, tissue Plasma, route gavage, dose level High
assay.readout: PL

{"compound": "C[C@H](CS)C(=O)N1CCC[C@H]1C(=O)O [CAPTOPRIL]", "meas.value": "133.6 mg/dL"}
{"compound": "Clc1ccccc1CN1CCc2sccc2C1 [TICLOPIDINE]", "meas.value": "122 mg/dL"}
{"compound": "O=C(O)c1cc(/N=N/c2ccc(S(=O)(=O)Nc3ccccn3)cc2)ccc1O [SULFASALAZINE]", "meas.value": "139.4 mg/dL"}
{"compound": "CCc1cc(C(N)=S)ccn1 [ETHIONAMIDE]", "meas.value": "130.4 mg/dL"}
{"compound": "O=C(O)c1cn(C2CC2)c2cc(N3CCNCC3)c(F)cc2c1=O [CIPROFLOXACIN]", "meas.value": "141 mg/dL"}

* * *

# Organism: Rattus norvegicus
# experiment.notes: Open TG-GATES - Regimen: Single
# Format: toxicity, organism-based, Sprague-Dawley
# Parameters: regimen Single, gender Male, age 6 weeks
# condition.details: in vivo, po, 1000 mg/kg, 3 h, tissue Plasma, route gavage, dose level High
# LDH listing for each entry below

{"compound": "O=C(O)c1cn(C2CC2)c2cc(N3CCNCC3)c(F)cc2c1=O", "LDH": "132.2 IU/L"}
{"compound": "CCc1cc(C(N)=S)ccn1 [ETHIONAMIDE]", "LDH": "106.4 IU/L"}
{"compound": "Clc1ccccc1CN1CCc2sccc2C1", "LDH": "147.4 IU/L"}
{"compound": "O=C(O)c1cc(/N=N/c2ccc(S(=O)(=O)Nc3ccccn3)cc2)ccc1O", "LDH": "203.6 IU/L"}

* * *

# Organism: Rattus norvegicus
# experiment.notes: Open TG-GATES - Regimen: Single
# Assay type: toxicity, organism-based, Sprague-Dawley
# Parameters: regimen Single, gender Male, age 6 weeks
# condition.details: in vivo, po, 300 mg/kg, 6 h, tissue Plasma, route gavage, dose level Middle
assay.readout: DBIL (mg/dL)

{"molecule": "O=C(O)c1cn(C2CC2)c2cc(N3CCNCC3)c(F)cc2c1=O", "assay.readout": "DBIL", "meas.value": 0.038}
{"molecule": "C[C@H](CS)C(=O)N1CCC[C@H]1C(=O)O", "assay.readout": "DBIL", "meas.value": 0.026}
{"molecule": "O=C(O)c1cc(/N=N/c2ccc(S(=O)(=O)Nc3ccccn3)cc2)ccc1O", "assay.readout": "DBIL", "meas.value": 0.072}
{"molecule": "Clc1ccccc1CN1CCc2sccc2C1", "assay.readout": "DBIL", "meas.value": 0.078}
{"molecule": "CCc1cc(C(N)=S)ccn1 [ETHIONAMIDE]", "assay.readout": "DBIL", "meas.value": 0.008}

* * *

# PL listing for each entry below
# Organism: Rattus norvegicus
# experiment.notes: Open TG-GATES - Regimen: Single
# Assay type: toxicity, organism-based, Sprague-Dawley
# Design: regimen Single, gender Male, age 6 weeks
# condition.details: in vivo, po, 0 mg/kg, 24 h, tissue Plasma, route gavage, dose level Control
assay.readout: PL (mg/dL)

{"compound": "O=C(O)c1cn(C2CC2)c2cc(N3CCNCC3)c(F)cc2c1=O [CIPROFLOXACIN]", "assay.readout": "PL", "units": "mg/dL", "meas.value": 157.2}
{"compound": "COc1cc2c(c3oc(=O)c4c(c13)CCC4=O)[C@@H]1C=CO[C@@H]1O2 [AFLATOXIN]", "assay.readout": "PL", "units": "mg/dL", "meas.value": 153.4}
{"compound": "Cn1c(=O)c2[nH]cnc2n(C)c1=O.O [THEOPHYLLINE]", "assay.readout": "PL", "units": "mg/dL", "meas.value": 151.6}
{"compound": "NC(=O)N1c2ccccc2C=Cc2ccccc21 [CARBAMAZEPINE]", "assay.readout": "PL", "units": "mg/dL", "meas.value": 146.2}
{"compound": "CC(=O)Oc1ccccc1C(=O)O [ASPIRIN]", "assay.readout": "PL", "units": "mg/dL", "meas.value": 153.4}
{"compound": "CSc1ccc2c(c1)N(CCC1CCCCN1C)c1ccccc1S2 (configuration not stated) [THIORIDAZINE]", "assay.readout": "PL", "units": "mg/dL", "meas.value": 150.8}
{"compound": "O=C(O)c1cc(/N=N/c2ccc(S(=O)(=O)Nc3ccccn3)cc2)ccc1O [SULFASALAZINE]", "assay.readout": "PL", "units": "mg/dL", "meas.value": 181.4}

* * *

# Species on record: Rattus norvegicus
# experiment.notes: Open TG-GATES - Regimen: Daily Repeat
# Type: toxicity, organism-based, Sprague-Dawley
# Set-up: regimen Daily Repeat, gender Male, age 6 weeks
# condition.details: in vivo, po, 0 mg/kg, […], tissue Plasma, route gavage, dose level Control, time 28 day
# TP listing for each entry below
assay.readout: TP (g/dL)

{"molecule": "CCc1cc(C(N)=S)ccn1 [ETHIONAMIDE]", "meas.value": 6.2}
{"molecule": "NC(=O)N1c2ccccc2C=Cc2ccccc21 [CARBAMAZEPINE]", "meas.value": 6.2}
{"molecule": "COc1ccc(Cc2nccc3cc(OC)c(OC)cc23)cc1OC [PAPAVERINE]", "meas.value": 5.8}
{"molecule": "CC(=O)Oc1ccccc1C(=O)O [ASPIRIN]", "meas.value": 6}
{"molecule": "NC(=O)N/N=C/c1ccc([N+](=O)[O-])o1 [NITROFURAZONE]", "meas.value": 6.1}
{"molecule": "Clc1ccccc1CN1CCc2sccc2C1 [TICLOPIDINE]", "meas.value": 6.1}

* * *

# Species on record: Rattus norvegicus
# experiment.notes: Open TG-GATES - Regimen: Daily Repeat
# Assay type: toxicity, organism-based, Sprague-Dawley
# Design: regimen Daily Repeat, gender Male, age 6 weeks
# condition.details: in vivo, po, 0 mg/kg, […], tissue Blood, route gavage, dose level Control, time 7 day
Under this convention, fulfilled denotes Lym strictly below 80% and not fulfilled denotes Lym at or above 80%.

{"compound": "NC(=O)N/N=C/c1ccc([N+](=O)[O-])o1 [NITROFURAZONE]", "assigned.label": "fulfilled"}
{"compound": "CSc1ccc2c(c1)N(CCC1CCCCN1C)c1ccccc1S2 (stereo not given) [THIORIDAZINE]", "assigned.label": "not fulfilled"}

* * *

# Organism: Rattus norvegicus
# experiment.notes: Open TG-GATES - Regimen: Single
# Type: toxicity, organism-based, Sprague-Dawley
# Design: regimen Single, gender Male, age 6 weeks
# condition.details: in vivo, po, 0 mg/kg, 24 h, tissue Blood, route gavage, dose level Control
assay.readout: Hb (g/dL)

{"structure.smiles": "C[C@H](CS)C(=O)N1CCC[C@H]1C(=O)O", "assay.readout": "Hb", "units": "g/dL", "meas.value": 13.4}
{"structure.smiles": "NC(=O)N/N=C/c1ccc([N+](=O)[O-])o1", "assay.readout": "Hb", "units": "g/dL", "meas.value": 13}
{"structure.smiles": "Cn1c(=O)c2[nH]cnc2n(C)c1=O.O", "assay.readout": "Hb", "units": "g/dL", "meas.value": 13.6}

* * *

# KIDNEY_L listing for each entry below
# Organism: Rattus norvegicus
# experiment.notes: Open TG-GATES - Regimen: Single
# Type: toxicity, organism-based, Sprague-Dawley
# Parameters: regimen Single, gender Male, age 6 weeks
# condition.details: in vivo, po, 0 mg/kg, 3 h, tissue Kidney, route gavage, dose level Control
assay.readout: KIDNEY_L

{"compound": "CN(C)CCC=C1c2ccccc2CCc2ccccc21", "assay.readout": "KIDNEY_L", "meas.value": "0.9 g"}
{"compound": "CCc1cc(C(N)=S)ccn1 [ETHIONAMIDE]", "assay.readout": "KIDNEY_L", "meas.value": "1 g"}
{"compound": "C[C@H](CS)C(=O)N1CCC[C@H]1C(=O)O", "assay.readout": "KIDNEY_L", "meas.value": "0.9 g"}
{"compound": "O=C(O)c1cc(/N=N/c2ccc(S(=O)(=O)Nc3ccccn3)cc2)ccc1O", "assay.readout": "KIDNEY_L", "meas.value": "0.9 g"}
{"compound": "NC(=O)N/N=C/c1ccc([N+](=O)[O-])o1", "assay.readout": "KIDNEY_L", "meas.value": "0.8 g"}
{"compound": "NC(=O)N1c2ccccc2C=Cc2ccccc21 [CARBAMAZEPINE]", "assay.readout": "KIDNEY_L", "meas.value": "1 g"}
{"compound": "Cn1c(=O)c2[nH]cnc2n(C)c1=O.O", "assay.readout": "KIDNEY_L", "meas.value": "1 g"}
{"compound": "Clc1ccccc1CN1CCc2sccc2C1", "assay.readout": "KIDNEY_L", "meas.value": "0.9 g"}
{"compound": "CC(=O)Oc1ccccc1C(=O)O", "assay.readout": "KIDNEY_L", "meas.value": "1 g"}
{"compound": "COc1ccc(Cc2nccc3cc(OC)c(OC)cc23)cc1OC", "assay.readout": "KIDNEY_L", "meas.value": "1 g"}
{"compound": "O=C(O)c1cn(C2CC2)c2cc(N3CCNCC3)c(F)cc2c1=O", "assay.readout": "KIDNEY_L", "meas.value": "0.8 g"}
{"compound": "CSc1ccc2c(c1)N(CCC1CCCCN1C)c1ccccc1S2 (configuration not stated)", "assay.readout": "KIDNEY_L", "meas.value": "1 g"}
